- protocol-description: Primary qHTS for delayed death inhibitors of the malarial parasite plastid, 96 hour incubation
- settings: P. falciparum luciferase reporter growth; series mostly up to 28.7 µM
The whole screen tested about 320,000 compounds, of which about 22,000 (6.9%) were called active. Inconclusive results (about 27%) are left out. Calls follow the shape of the dose curve; as a rule, active = well fitted inhibition curve with a large enough effect; inconclusive = small, poorly fitted or top-dose-only effect, or another doubt; inactive = no such curve, though single readings can be large or run the other way. Shown is part of a subset that was picked to be rich in actives.
Outcomes: 1.0 = active, 0.0 = inactive

1. COc1ccc(CCN2CNc3c(c(=O)n(C)c(=O)n3C)C2)cc1OC: 1.0
2. CSc1ncccc1C(=O)Nc1ccc2c(c1)OCO2: 0.0
3. COCCCn1c(SCC(=O)Nc2ccccc2)nnc1-c1ccncc1: 0.0
4. COc1ccc(Cn2c(=S)[nH]c3cc(C(=O)N4CCCCC4)ccc3c2=O)cc1: 0.0
5. COc1ccc2cc(C(=O)NCC3CCCO3)[nH]c2c1 (stereo unspecified): 0.0
6. COc1ccc(CCN=C2SCC(=O)N2C)cc1OC: 0.0
7. O=C(NCC1CCCO1)c1cc2c([nH]c3ccccc32)c(-c2ccc(F)cc2)n1 (stereo unspecified): 1.0
8. O=C(CCC1CCN(C(=O)c2cccc(Cl)c2F)CC1)Nc1ccccc1: 0.0
9. CC(=O)NCC(=O)NC1CCCc2c1cnn2-c1ccccc1F (stereo unspecified): 0.0
10. COc1ccc(CCN2C(=O)C3CC=C(C)CC3C2=O)cc1OC (stereo unspecified): 0.0
11. Clc1cccc(CN2COc3c(cc(Cl)c4cccnc34)C2)c1: 1.0
12. CCCN(CCC)S(=O)(=O)c1ccc(C(=O)NNC(=O)c2cc(OC)c(OC)c(OC)c2)cc1: 0.0
13. CCCCCC1CC(COc2ccccc2)OC1=O (stereo unspecified): 0.0
14. Cc1ccc(C(=O)NNC(=O)c2ccc3c(c2)OCCO3)cc1: 0.0
15. CN(C)CCCn1c(SCc2ccc(Cl)cc2)nnc1-c1ccncc1: 1.0
16. O=C(Nc1ccccc1C(=O)NCC1CCCO1)c1ccccc1F (stereo unspecified): 0.0

----------
- protocol-description: Primary qHTS for delayed death inhibitors of the malarial parasite plastid, 96 hour incubation
- settings: P. falciparum luciferase reporter growth; series mostly up to 28.7 µM
Hit rate of the full screen: of about 320,000 compounds, about 22,000 (6.9%) were called active. Another 27% or so got no clear call; they are omitted. Calls come from the whole dose curve; as a rule, active = well fitted inhibition curve with a large enough effect; inconclusive = small, poorly fitted or top-dose-only effect, or another doubt; inactive = no such curve, though single readings can be large or run the other way. For the sample, actives were picked, then their nearest neighbours and some compounds at random.
Outcomes: active, inactive

1. Cc1cc(-c2nnc(SCC(=O)Nc3ccc(S(N)(=O)=O)cc3)n2N)n[nH]1: inactive
2. COc1ccc(C(=O)C2CCCN(Cc3cccn3-c3ccccn3)C2)c(C)c1 (stereo not drawn): inactive
3. Cc1cnc(NC(=O)CSc2c(Cl)cccc2Cl)s1: active

----------
- protocol-description: Primary qHTS for delayed death inhibitors of the malarial parasite plastid, 96 hour incubation
- settings: P. falciparum luciferase reporter growth; series mostly up to 28.7 µM
Hit rate of the full screen: of about 320,000 compounds, about 22,000 (6.9%) were called active. About 27% were inconclusive and are not listed. Calls come from the whole dose curve; as a rule, active = well fitted inhibition curve with a large enough effect; inconclusive = small, poorly fitted or top-dose-only effect, or another doubt; inactive = no such curve, though single readings can be large or run the other way. This is one part of a sample in which actives are shown more often than they occur.
Outcome codes: active, inactive

1) CC(C)(CNC(=O)CNC(=O)C1CCCCC1)N1CCOCC1: inactive
2) Cc1cc(=O)cc(C)n1-c1ccc(Cl)c(Cl)c1: inactive
3) O=C(COC(=O)c1ncc(Cl)c(Cl)c1Cl)NC1CCS(=O)(=O)C1 (configuration not stated): inactive
4) Cc1nn(CC(=O)Nc2ccc(F)cc2)c(=O)c2ccccc12: inactive
5) COc1cccc(OC)c1C(=O)Nc1ccc2c(c1)n(C)c(=O)n2C: inactive
6) CCOc1cc(/C=N/NC(=O)c2ccc(CSc3nncn3C)cc2)ccc1OCC(=O)N1CCOCC1: active
7) Cc1ccc(C)c(OCCC(=O)OCC(=O)N2CCN(c3ccccc3)CC2)c1: inactive
8) N#Cc1ccccc1S(=O)(=O)N1CCN(Cc2c(O)ccc3ccccc23)CC1: inactive
9) CCC(C)NC(=O)C1CCC(=O)N1Cc1ccc(C)cc1 (configuration not stated): active
10) Cc1nc2ccccc2nc1N/N=C/c1ccc(O)cc1O: active
11) CN(c1ccccc1)S(=O)(=O)c1cccc(C(=O)NNC(=O)c2ccncc2)c1: inactive
12) CCOc1ccc(C(=O)Nc2ccc(CN3CCOCC3)cc2)cc1Cl: inactive
13) CCCc1cc(=O)oc2cc(OCC(=O)Nc3ccc(CN4CCOCC4)cc3)c(Cl)cc12: active
14) O=C(COc1ccccc1[N+](=O)[O-])N/N=C/c1ccc[nH]1: inactive
15) Oc1ccc2ccccc2c1N=Nc1nccs1: active
16) CC1CC(=O)Nc2ccccc2N1C(=O)COc1ccc2cc(Br)ccc2c1 (configuration not stated): inactive
17) Oc1c(C=Nc2cccc3nsnc23)ccc2ccccc12: inactive
18) COc1cc(OC)cc(C(=O)NCC(=O)N2CCCCCCC2)c1: inactive
19) COC(=O)CSc1nnc(NC(=O)CCc2ccccc2)s1: inactive
20) CCOc1cc(/C=N/Nc2cc(C)nc3ccc(C)cc23)ccc1O: inactive
21) Fc1ccc(/C=N/Nc2nc(-c3cccnc3)nc3ccccc23)cc1: inactive
22) CCc1ccc(NC(=O)Cn2nc(C)c([N+](=O)[O-])c2C)cc1: inactive
23) Cc1ccccc1N1CC(C(=O)Nc2ccc(S(=O)(=O)N3CCCC3)cc2)CC1=O (configuration not stated): inactive
24) Oc1ccc(/C=N/NC2=NCCCCC2)c(O)c1: inactive
25) CCOc1ccc(NC(=O)c2ccc(NC(=O)C3CCCO3)cc2)cc1 (configuration not stated): inactive
26) COc1cc(C(=O)NN(CCC#N)C2=NS(=O)(=O)c3ccccc32)cc(OC)c1OC: inactive
27) CCc1cc(=O)oc2c(C)c(OCC(=O)NCCN3CCOCC3)ccc12: inactive
28) CCc1ccc(C(=O)N2CCN(S(=O)(=O)c3sc(C(=O)O)c(C)c3C(=O)O)CC2)cc1: inactive
29) COc1ccc(C2=NS(=O)(=O)N(C)C(C(=O)N(C)Cc3ccccc3)=C2)cc1: inactive
30) O=C(COc1ccc2ccc(=O)oc2c1)NCC(O)c1ccccc1 (configuration not stated): inactive
31) CCOC(=O)N1CCN(S(=O)(=O)c2ccc(-n3cnnn3)cc2)CC1: inactive
32) CCN(CC)S(=O)(=O)c1ccc(N2CC(C(=O)NCc3cccnc3)CC2=O)cc1 (configuration not stated): inactive

----------
- protocol-description: Primary qHTS for delayed death inhibitors of the malarial parasite plastid, 96 hour incubation
- settings: P. falciparum luciferase reporter growth; series mostly up to 28.7 µM
The campaign covered roughly 320,000 compounds. About 22,000 (6.9%) were called active. Inconclusive results (about 27%) are left out. Calls follow the shape of the dose curve; as a rule, active = well fitted inhibition curve with a large enough effect; inconclusive = small, poorly fitted or top-dose-only effect, or another doubt; inactive = no such curve, though single readings can be large or run the other way. The sample holds actives, similar compounds and a random draw of the others, so the mix is not that of the screen.
Outcome codes: active, inactive

1) CCNC(=S)N(CCN(CC)CC)Cc1cc2cc3c(cc2[nH]c1=O)OCCO3: inactive
2) Cc1nc(Cl)cc(N/N=C/c2ccccc2)n1: inactive
3) Cc1cccc(OCC(O)CN2CCN(S(=O)(=O)c3ccc(C)cc3C)CC2)c1 (stereo not drawn): active
4) OC(COc1cccc(OCC(O)CN2CCCC2)c1)CN1CCCC1 (stereo not drawn): inactive
5) Cc1ccccc1NC(=O)Cc1nc(COC(=O)c2ccc(C(F)(F)F)cc2)cs1: inactive
6) CCS(=O)(=O)C1=NSC2=NC(=O)/C(=C\c3ccc(OS(=O)(=O)c4ccccc4)cc3)C(=N)N21: inactive
7) COc1ccc(CCNC(=O)CCC(=O)NC2CCCCC2)cc1OC: inactive
8) CCc1cc(C(=O)Nc2nnc(C3CC3)s2)sc1C: inactive
9) Cc1ccccc1OCC(=O)Nc1nc(C)c(C(=O)N(C)C)s1: inactive
10) Cc1cccc([C@H](C)c2cnc[nH]2)c1C: active
11) CC(=O)c1ccccc1OCc1ccc(C(=O)c2ccccc2)cc1: inactive
12) COc1ccc(N(CC(=O)N2CCCCCC2)S(=O)(=O)c2ccccc2)cc1: inactive
13) COc1ccc(NC(=O)CCN2CCCC2)c(OC)c1: inactive
14) CC(=O)c1ccc(OCC(O)CN2CCN(S(=O)(=O)c3cccc(Br)c3)CC2)cc1 (stereo not drawn): inactive
15) CC(=O)N1c2ccc(S(=O)(=O)N3CCC(C(=O)NC4CCCCC4C)CC3)cc2CC1C (stereo not drawn): inactive
16) CN1CCN(c2ccc(CNS(=O)(=O)c3cccc(F)c3)cc2)CC1: inactive
17) Cc1ccc(S(=O)(=O)NNC(=S)NC(C)(C)C)cc1: inactive
18) O=S(=O)(NCCc1ccc(F)cc1)c1cccc2cccnc12: inactive
19) COc1ccc([N+](=O)[O-])cc1N(CC(=O)Nc1ccccc1C(=O)N1CCOCC1)S(C)(=O)=O: inactive
20) COc1cc(C(=S)NC2CCCCC2)ccc1O: active
21) COC(=O)c1ccc(N2CCOCC2)c(NC(=O)c2ccc(Br)o2)c1: inactive
22) CCCNC(=O)c1ccc(N2CCC3(CC2)CC(c2cccc(Br)c2)=NO3)c(NC(=O)c2ccco2)c1: active
23) Cc1cccc(N2CCN(C(=O)C3CCN(S(=O)(=O)c4cnc[nH]4)CC3)CC2)c1C: inactive
